Protocol text: Growth of KB cells (population doubling times)
Format: cell-based, human
Test context: human, kb cells; 100 μM; read-out: reduction of KB cell growth rate
Parameter: inhibition at 100 µM. Scope: all listed entries.
Readout: inhibition at 100 µM

Molecule: OCC(CO)OCn1cc(I)c2c(NO)ncnc21
Measured result: > 50%
--
Molecule: OCC(CO)OCn1cc(Br)c2c(NO)ncnc21
Measured result: > 50%

###

System: HCMV
Protocol text: HCMV plaque (focus) reduction assay
Type: cell-based
Test context: Human betaherpesvirus 5; Table 1; HFF cells; read-out: 50% Inhibitory Concentration HCMV Plaque
Readout: IC50 (µM)

Molecule: Nc1nc2c(ncn2COCCO)c(=O)[nH]1 [Acyclovir, reference compound]
Assayed target: HCMV
Measured result: 63
//
Molecule: Nc1nc(O)c2ncn(COC(CO)CO)c2n1 [Ganciclovir (DHPG), reference compound]
Assayed target: HCMV
Measured result: 8.7
//
Molecule: Nc1ncnc2c1c(Cl)cn2COC(CO)CO [UMJD 186]
Assayed target: HCMV
Measured result: 9.8
//
Molecule: OCC(CO)OCn1cc(Cl)c2c(NO)ncnc21 [UMJD 328]
Assayed target: HCMV
Measured result: 56
//
Molecule: Nc1ncnc2c1c(Br)cn2COC(CO)CO [UMJD 183]
Assayed target: HCMV
Measured result: 1.6
//
Molecule: NC(=S)c1cn(COCCO)c2ncnc(N)c12 [UMJD 229]
Assayed target: HCMV
Measured result: 11
//
Molecule: Nc1ncnc2c1c(I)cn2COCCO [UMJD 104]
Assayed target: HCMV
Measured result: 24

###

Test system: HSV-1
Protocol text: HSV-1 titer (yield) reduction assay
Assay type: cell-based, herpes simplex virus type 1 in KB cells
Test context: Human alphaherpesvirus 1; Table 1; I90; strain S148; KB cells; read-out: HSV-1 Yield, 90% inhibitory concentration (I90)
Classify: 1.0 when IC90 is strictly less than 30 µM; 0.0 when IC90 is not.

Compound: Nc1ncnc2c1c(Br)cn2COC(CO)CO
Assayed target: HSV-1
Class: 1.0

Compound: Nc1ncnc2c1c(I)cn2COCCO
Assayed target: HSV-1
Class: 0.0

Compound: OCC(CO)OCn1cc(Br)c2c(NO)ncnc21
Assayed target: HSV-1
Class: 0.0

Compound: Nc1ncnc2c1c(Cl)cn2COCCO
Assayed target: HSV-1
Class: 0.0

Compound: Nc1ncnc2c1c(Cl)cn2COC(CO)CO
Assayed target: HSV-1
Class: 1.0

Compound: Nc1nc2c(ncn2COCCO)c(=O)[nH]1 [Acyclovir, reference compound]
Assayed target: HSV-1
Class: 1.0

###

Protocol text: Drug toxicity control in uninfected mice
Format: in vivo
Test context: mouse, in vivo, ip; 50 mg/kg, no virus; read-out: Mortality Percent (Toxicity)
Readout: mortality (%)

Molecule: Nc1ncnc2c1c(Br)cn2COC(CO)CO
Measured result: 0

###

Protocol text: Drug toxicity control in uninfected mice
Type: in vivo
Test context: mouse, in vivo, ip; 16.7 mg/kg, no virus; read-out: Mortality Percent (Toxicity)

Molecule: Nc1ncnc2c1c(Br)cn2COC(CO)CO
mortality / %: 7

###

Protocol text: Growth of HFF cells
Type: cell-based, human
Test context: human, hff cells; 100 μM; 70-hour incubation; read-out: reduction of number of HFF cells
Readout: inhibition at 70 h, 100 µM

Molecule: Nc1ncnc2c1c(Cl)cn2COCCO
Readout: inhibition at 70 h, 100 µM
Measured result: < 10%
